Assay: Cytotoxicity against dog MDCK cells incubated for 48 hrs by CCK-8 assay
Assay type: toxicity, cell-based
Details: dog (Canis lupus familiaris)
reported metric: IC50 at 48 h (µg/mL)

structure_string=Clc1cc2c(c3ncccc13)OCN(CCCc1ccccc1)C2 scale_unit=µg/mL recorded_value=43.8
structure_string=Fc1cc2c(c3ncccc13)OCN(CCOc1ccc(Cl)cc1)C2 scale_unit=µg/mL recorded_value=22.3
structure_string=Fc1cc2c(c3ncccc13)OCN(CCCc1ccccc1)C2 scale_unit=µg/mL recorded_value=26
structure_string=Fc1cc2c(c3ncccc13)OCN(Cc1cccc(Cl)c1)C2 scale_unit=µg/mL recorded_value=19
structure_string=Clc1cccc(CN2COc3c(cc(Cl)c4cccnc34)C2)c1 scale_unit=µg/mL recorded_value=23.9
structure_string=Fc1cc2c(c3ncccc13)OCN(CCc1ccc(Cl)cc1)C2 scale_unit=µg/mL recorded_value=29.2

---

System: Escherichia coli
Assay: Antibacterial activity against multi-drug resistant Escherichia coli 4 clinical isolate assessed as bacterial growth inhibition in presence of CAMHB medium by broth microdilution method
Type: functional
reported metric: MIC (µg/mL)

structure_string=Fc1cc2c(c3ncccc13)OCN(CCc1cccc(Br)c1)C2 reported_metric=MIC recorded_value=50
structure_string=Clc1cc2c(c3ncccc13)OCN(CCc1ccccc1)C2 reported_metric=MIC recorded_value=50
structure_string=Clc1ccc(CN2COc3c(cc(Cl)c4cccnc34)C2)cc1 reported_metric=MIC recorded_value=50
structure_string=Fc1cc2c(c3ncccc13)OCN(Cc1ccc(Cl)cc1)C2 reported_metric=MIC recorded_value=50
structure_string=Fc1cc2c(c3ncccc13)OCN(CCc1ccc(Cl)cc1)C2 reported_metric=MIC recorded_value=50
structure_string=Fc1cc2c(c3ncccc13)OCN(CCc1cccc(Cl)c1)C2 reported_metric=MIC recorded_value=50
structure_string=Fc1ccc(CN2COc3c(cc(Cl)c4cccnc34)C2)c(F)c1 reported_metric=MIC recorded_value=50
structure_string=Fc1cc2c(c3ncccc13)OCN(CCc1ccc(Br)cc1)C2 reported_metric=MIC recorded_value=50
structure_string=Clc1cc2c(c3ncccc13)OCN(CCCc1ccccc1)C2 reported_metric=MIC recorded_value=50

---

Assay: Cytotoxicity against dog MDCK cells incubated for 48 hrs by CCK-8 assay
Format: toxicity, cell-based
Conditions: dog (Canis lupus familiaris)
// IC50 at 48 h lookup, one value per entry
reported metric: IC50 at 48 h (µg/mL)

structure_string=Fc1cc2c(c3ncccc13)OCN(Cc1ccc(C(F)(F)F)cc1)C2 recorded_value=7.93
structure_string=Fc1cccc(CCN2COc3c(cc(F)c4cccnc34)C2)c1 recorded_value=29.4
structure_string=Clc1cc2c(c3ncccc13)OCN(CCCCc1ccccc1)C2 recorded_value=33.8
structure_string=Fc1cc2c(c3ncccc13)OCN(CCc1ccc(Br)cc1)C2 recorded_value=44.9
structure_string=Fc1cc2c(c3ncccc13)OCN(CCCCc1ccccc1)C2 recorded_value=29.3
structure_string=Fc1cc2c(c3ncccc13)OCN(CCc1ccccc1)C2 recorded_value=8.97

---

Assay: Cytotoxicity against dog MDCK cells incubated for 48 hrs by CCK-8 assay
Assay type: toxicity, cell-based
Conditions: dog (Canis lupus familiaris)
In this scheme, each record receives a class according to its IC50 at 48 h; the ranges are low: < 30 µg/mL; middle: ≥ 30 µg/mL and < 40 µg/mL; high: ≥ 40 µg/mL

structure_string=Fc1cc2c(c3ncccc13)OCN(CCc1cccc(Br)c1)C2 discrete_label=middle
structure_string=Clc1cc2c(c3ncccc13)OCN(Cc1ccccc1)C2 discrete_label=middle
structure_string=Clc1cc2c(c3ncccc13)OCN(CCc1ccccc1)C2 discrete_label=low
structure_string=Fc1ccc(CCN2COc3c(cc(Cl)c4cccnc34)C2)cc1 discrete_label=low
structure_string=Clc1ccc(CN2COc3c(cc(Cl)c4cccnc34)C2)cc1 discrete_label=high
structure_string=Fc1cc2c(c3ncccc13)OCN(Cc1ccc(Cl)cc1)C2 discrete_label=middle
structure_string=Clc1cc2c(c3ncccc13)OCN(CCc1ccc(Br)cc1)C2 discrete_label=middle
structure_string=Fc1ccc(CCN2COc3c(cc(F)c4cccnc34)C2)cc1 discrete_label=low
structure_string=Fc1ccc(CN2COc3c(cc(Cl)c4cccnc34)C2)c(F)c1 discrete_label=middle
structure_string=Fc1cc2c(c3ncccc13)OCN(CCc1cccc(Cl)c1)C2 discrete_label=high
